- method: Single ascending oral dose study in healthy volunteers: plasma pharmacokinetics
- Format: in vivo, human
- runParameters: human, plasma, oral, 525 mg; read-out: AUC0-last, Mean
measure: AUC(0-t) (ng·h/mL)

- Cn1cc(S(=O)(=O)[C@@](C)(F)C2CCN(C(=O)Nc3ccon3)CC2)c(C(F)F)n1 [Compound I]: 71700

====

- method: Single ascending oral dose study in healthy volunteers: plasma pharmacokinetics
- Format: in vivo, human
- runParameters: human, plasma, oral, 3 mg; read-out: AUC0-∞, Geometric Mean
measure: AUC(0-inf) (µg·h/mL)

- Cn1cc(S(=O)(=O)[C@@](C)(F)C2CCN(C(=O)Nc3ccon3)CC2)c(C(F)F)n1: 0.722
